In this section, each of the compounds is paired with its reported pKi.
Molecular target: α1d-AR (Homo sapiens, UniProt P25100)
Construct: expressed in transfected cells; host or cells: COS-7 cells (African Green monkey kidney), membranes
Sequence (P25100 1-572): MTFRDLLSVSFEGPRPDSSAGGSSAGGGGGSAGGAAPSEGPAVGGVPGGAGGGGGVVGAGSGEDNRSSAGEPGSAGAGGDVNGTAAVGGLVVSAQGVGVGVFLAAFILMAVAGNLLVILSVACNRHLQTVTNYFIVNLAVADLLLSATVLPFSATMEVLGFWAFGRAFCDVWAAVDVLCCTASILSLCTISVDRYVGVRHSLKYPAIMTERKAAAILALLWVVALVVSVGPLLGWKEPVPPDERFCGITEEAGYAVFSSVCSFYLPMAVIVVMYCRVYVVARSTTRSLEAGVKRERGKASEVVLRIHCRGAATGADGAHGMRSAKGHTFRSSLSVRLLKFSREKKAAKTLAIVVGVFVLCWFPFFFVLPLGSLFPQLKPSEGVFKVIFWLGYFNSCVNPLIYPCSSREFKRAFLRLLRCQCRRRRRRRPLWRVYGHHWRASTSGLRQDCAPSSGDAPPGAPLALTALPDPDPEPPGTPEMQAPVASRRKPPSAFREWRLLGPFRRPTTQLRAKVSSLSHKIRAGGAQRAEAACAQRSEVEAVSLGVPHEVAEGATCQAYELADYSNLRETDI
Assay: α1-Adrenergic Receptor Binding Assay, 125I-HEAT radio-ligand binding, transfected COS-7 cell membranes, α1d subtype
Conditions: individual values, COS-7 membranes, read-out: Alpha 1 Ki α1d (2) Individual Values
// pKi here means minus log10 of the molar concentration (mol/L)

>>> reported("COc1cc2c(cc1OC)N(C(=O)C1=NOC(CN3CCN(c4ccccc4OC(C)C)CC3)C1)CC2 (stereo not drawn) [Compound 23]")
8.18
>>> reported("CC(C)Oc1ccccc1N1CCN(CC2CC(CN3CCCCC3)=NO2)CC1 (stereo not drawn) [Compound 5]")
6.75
>>> reported("Cc1ccc2c(c1)CCN2C(=O)C1=NOC(CN2CCN(c3ccccc3OC(C)C)CC2)C1 (stereo not drawn) [Compound 25]")
9.92
>>> reported("CC(C)Oc1ccccc1N1CCN(CC2CC(C(=O)N3CCN(c4ccccc4OC(C)C)CC3)=NO2)CC1 (stereo not drawn) [Compound 17]")
8.18
>>> reported("CC(C)Oc1ccccc1N1CCN(CC2CC(C(=O)N3CCC(Oc4ccccc4)CC3)=NO2)CC1 (single isomer, unassigned) [Compound 38]")
7.26
>>> reported("CC(C)Oc1ccccc1N1CCN(CC2CC(CN3CCc4ccccc43)=NO2)CC1 (stereo not drawn) [Compound 4]")
8.00
>>> reported("CC(C)Oc1ccccc1N1CCN(CC2CC(CN3CCc4ccc(NCc5c(F)cccc5F)cc43)=NO2)CC1 (stereo not drawn) [Compound 7]")
8.03
>>> reported("CC(C)Oc1ccccc1N1CCN(CC2CC(CN3CCCCC3=O)=NO2)CC1 (single isomer, unassigned) [Compound 3]")
7.70

Ask: Item CC(C)Oc1ccccc1N1CCN(CC2CC(CN3CCCCC3=O)=NO2)CC1 (stereo not drawn) [Compound 1] has what recorded pKi?
Result: 8.07

Ask: Item CC(=O)N1CCc2ccc(NC(=O)C3=NOC(CN4CCN(c5ccccc5OC(C)C)CC4)C3)cc21 (stereo not drawn) [Compound 24] has what recorded pKi?
Result: 8.40

Ask: Item CC(C)Oc1ccccc1N1CCN(CC2CC(C(=O)N3CCOCC3)=NO2)CC1 (single isomer, unassigned) [Compound 44] has what recorded pKi?
Result: 7.70

Ask: Item CC(C)Oc1ccccc1N1CCN(CC2CC(C(=O)N3CCC(C(=O)c4ccc(F)cc4)CC3)=NO2)CC1 (single isomer, unassigned) [Compound 40] has what recorded pKi?
Result: 8.34

Ask: Item CC(C)Oc1ccccc1N1CCN(CC2CC(C(=O)N3CC(C)(C)c4cc(Br)ccc43)=NO2)CC1 (single isomer, unassigned) [Compound 43] has what recorded pKi?
Result: 6.99

Ask: Item CC(C)Oc1ccccc1N1CCN(CC2CC(C(=O)N3CCC(Oc4ccc(Cl)cc4)CC3)=NO2)CC1 (stereo not drawn) [Compound 34] has what recorded pKi?
Result: 7.57

Ask: Item CC(C)Oc1ccccc1N1CCN(CC2CC(C(=O)N3CCC(c4ccccc4)(c4ccccc4)CC3)=NO2)CC1 (stereo not drawn) [Compound 31] has what recorded pKi?
Result: 8.02
